# testedOn: Protein smoothened (Mus musculus, UniProt P56726)
# Sequence (P56726 whole entry): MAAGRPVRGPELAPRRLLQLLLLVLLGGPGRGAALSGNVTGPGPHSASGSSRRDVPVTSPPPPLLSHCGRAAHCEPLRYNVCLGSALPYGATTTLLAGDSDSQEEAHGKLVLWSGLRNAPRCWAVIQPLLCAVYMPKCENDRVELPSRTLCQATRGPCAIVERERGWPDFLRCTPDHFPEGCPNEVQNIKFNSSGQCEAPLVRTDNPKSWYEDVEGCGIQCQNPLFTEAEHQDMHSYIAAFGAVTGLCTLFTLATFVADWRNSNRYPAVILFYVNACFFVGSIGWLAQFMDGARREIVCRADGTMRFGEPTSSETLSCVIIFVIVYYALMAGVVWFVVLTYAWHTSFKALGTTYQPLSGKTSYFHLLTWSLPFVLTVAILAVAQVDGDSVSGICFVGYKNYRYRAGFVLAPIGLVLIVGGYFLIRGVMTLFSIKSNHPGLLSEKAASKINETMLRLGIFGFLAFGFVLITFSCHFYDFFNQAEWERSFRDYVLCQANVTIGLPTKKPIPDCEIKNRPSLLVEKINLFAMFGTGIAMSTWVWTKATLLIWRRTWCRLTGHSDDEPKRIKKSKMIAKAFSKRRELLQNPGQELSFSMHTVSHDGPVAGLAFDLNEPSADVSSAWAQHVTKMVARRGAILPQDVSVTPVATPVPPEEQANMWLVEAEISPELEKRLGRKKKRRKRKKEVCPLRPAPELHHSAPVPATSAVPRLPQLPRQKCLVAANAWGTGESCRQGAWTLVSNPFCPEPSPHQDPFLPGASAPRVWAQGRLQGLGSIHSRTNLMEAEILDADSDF
# assaySummary: Displacement of [3H]3-chloro-4,7-difluoro-N-(4-methoxy-3-(pyridin-4-yl)benzyl)-N-(4-(methylamino)cyclohexyl)benzo[b]thiophene-2-carboxamide from mouse Smoothened receptor expressed in CHO-K1 cells by membrane filter binding assay
# Assay type: cell-based
assayEndpoint: IC50 (nM)

CC(O)c1ccc(N2CCN(c3nnc(Cc4ccccc4)c4ccccc34)CC2)nc1 (stereo not given)
61
N#Cc1ccc(Cc2nnc(N3CCN(c4ccc(C#N)cn4)CC3)c3ccccc23)cc1
23
NC(=O)c1ccc(N2CCN(c3nnc(Cc4ccccc4)c4ccccc34)CC2)nc1
173
CN(C)Cc1ccc(N2CCN(c3nnc(Cc4ccccc4)c4ccccc34)CC2)nc1
287
CC(C)(N)c1ccc(N2CCN(c3nnc(Cc4ccccc4)c4ccccc34)CC2)nc1
6

A: COC(=O)c1ccc(Cc2nnc(N3CCN(c4ccc(C#N)cn4)CC3)c3ccccc23)cc1
B: CC(C)(O)c1ccc(N2CCN(c3nnc(Cc4ccccc4)c4ccccc34)CC2)nc1
C: N#Cc1ccc(N2CCN(c3nnc(Cc4ccccc4)c4ccccc34)CC2)nc1
Parameters: sort_field (IC50), sort_dir (desc). Please list each label once, in the requested order.
A, C, B
(A: 165 nM, C: 71 nM, B: 5 nM)

###

# assaySummary: Tmax in nude mouse plasma at 5 mg/kg, po after 24 hrs
# Assay type: ADME, organism-based
# Parameters: dose 5 mg/kg, route oral
assayEndpoint: Tmax (min)
Reply with just the number (in min).

Please report the recorded Tmax for CC(C)(O)c1ccc(N2CCN(c3nnc(Cc4ccccc4)c4ccccc34)CC2)nc1 .
15

###

# testedOn: UniProt:Q99835
# assaySummary: Displacement of [3H]3-chloro-4,7-difluoro-N-(4-methoxy-3-(pyridin-4-yl)benzyl)-N-(4-(methylamino)cyclohexyl)benzo[b]thiophene-2-carboxamide from human Smoothened receptor expressed in CHO-K1 cells by membrane filter binding assay
assayEndpoint: IC50 (nM)

N#Cc1ccc(N2CCN(c3nnc(Cc4ccccc4)c4ccccc34)CC2)nc1
112
N#Cc1ccc(N2CCN(c3nnc(Cc4cccc(Cl)c4)c4ccccc34)CC2)nc1
82

1: CC(O)(CO)c1ccc(N2CCN(c3nnc(Cc4ccccc4)c4ccccc34)CC2)nc1 (racemic)
2: OCc1ccc(N2CCN(c3nnc(Cc4ccccc4)c4ccccc34)CC2)nc1
Between the entries labeled 1 and 2 , whose measured IC50 is lower? Write the label of whichever entry you select.
1
(1: 70 nM, 2: 484 nM)

###

# assaySummary: AUC (0 to infinity) in nude mouse plasma at 1 mg/kg, iv after 24 hrs
# Format: ADME, organism-based
# Parameters: time infinity, dose 1 mg/kg, route intravenous
assayEndpoint: AUC(0-inf) (µM·h)
Reply with just the number (in µM·h).

Please report the recorded AUC(0-inf) for CC(C)(O)c1ccc(N2CCN(c3nnc(Cc4ccccc4)c4ccccc34)CC2)nc1 .
7.23

###

# assaySummary: Cmax in nude mouse plasma at 5 mg/kg, po after 24 hrs
# Assay type: ADME, organism-based
# Design: dose 5 mg/kg, route oral
assayEndpoint: Cmax (µM)
Reply with just the number (in µM).

Please report the recorded Cmax for CC(C)(O)c1ccc(N2CCN(c3nnc(Cc4ccccc4)c4ccccc34)CC2)nc1 .
15.7

###

# testedOn: Protein smoothened (Mus musculus, UniProt P56726)
# assaySummary: Displacement of [3H]3-chloro-4,7-difluoro-N-(4-methoxy-3-(pyridin-4-yl)benzyl)-N-(4-(methylamino)cyclohexyl)benzo[b]thiophene-2-carboxamide from mouse Smoothened receptor expressed in CHO-K1 cells by membrane filter binding assay
# Assay type: cell-based
pIC50: −log10 of the molar value.
assayEndpoint: pIC50

Examples with their reported pIC50 follow.
N#Cc1ccc(N2CCN(c3nnc(Cc4ccc(F)cc4)c4ccccc34)CC2)nc1
7.16
N#Cc1ccc(N2CCC(c3cn(Cc4ccccc4)c4ccccc34)CC2)nc1
6.41
O=C(O)c1ccc(N2CCN(c3nnc(Cc4ccccc4)c4ccccc34)CC2)nc1
5.78
c1ccc(Cc2nnc(N3CCN(c4ccccc4)CC3)c3ccccc23)cc1
5.96
c1ccc(Cc2nnc(N3CCN(c4ccccn4)CC3)c3ccccc23)cc1
6.19

I: C[C@H]1CN(c2ccc(C#N)cn2)CCN1c1nnc(Cc2ccccc2)c2ccccc12
II: OC1(c2ccc(N3CCN(c4nnc(Cc5ccccc5)c5ccccc45)CC3)nc2)CC1
III: FC(F)(F)c1ccc(N2CCN(c3nnc(Cc4ccccc4)c4occc34)CC2)nc1
Order the entries by their reported pIC50, beginning at the minimum. Please list each label once, in the requested order.
III, I, II
(III: 6.86, I: 7.66, II: 8.00)

a: OCc1ccc(N2CCN(c3nnc(Cc4ccccc4)c4ccccc34)CC2)nc1
b: NS(=O)(=O)c1ccc(N2CCN(c3nnc(Cc4ccccc4)c4ccccc34)CC2)nc1
Among a and b , which shows a numerically higher pIC50 result? Write the label of whichever entry you select.
b
(b: 7.05, a: 6.73)

a: N#Cc1ccc(N2CCN(c3nnc(Cc4cccc(Cl)c4)c4ccccc34)CC2)nc1
b: C[C@@H]1CN(c2nnc(Cc3ccccc3)c3ccccc23)CCN1c1ccc(C#N)cn1
Among a and b , which shows a numerically higher pIC50 result? Write the label of whichever entry you select.
b
(b: 7.77, a: 7.27)

###

# testedOn: Protein smoothened (Mus musculus)
# Format: cell-based, TM3
# Description: Inhibition of Smoothened receptor in mouse TM3 cells transfected with pTA-8xGli-Luc reporter gene assessed as inhibition of 25 nM 3-chloro-4,7-difluoro-N-(4-methoxy-3-(pyridin-4-yl)benzyl)-N-(4-(methylamino)cyclohexyl)benzo[b]thiophene-2-carboxamide-induced Hedgehog pathway activation by Gli shift assay
pIC50: −log10 of the molar value.
assayEndpoint: pIC50

Examples with their reported pIC50 follow.
N#Cc1ccc(N2CCC(c3cn(Cc4ccccc4)c4ccccc34)CC2)nc1
5.82
c1ccc(N2CCN(c3nnc(Cc4ccncc4)c4ccccc34)CC2)nc1
5.35
CN(C)Cc1ccc(N2CCN(c3nnc(Cc4ccccc4)c4ccccc34)CC2)nc1
6.61
NC(=O)c1ccc(N2CCN(c3nnc(Cc4ccccc4)c4ccccc34)CC2)nc1
6.83
FC(F)(F)c1ccc(N2CCN(c3nnc(Cc4ccccc4)c4[nH]cnc34)CC2)nc1
5.81
C[C@H]1CN(c2ccc(C#N)cn2)CCN1c1nnc(Cc2ccccc2)c2ccccc12
6.68

1: N#Cc1ccc(Cc2nnc(N3CCN(c4ccc(C#N)cn4)CC3)c3ccccc23)cc1
2: c1ccc(Cc2nnc(N3CCN(c4ccccc4)CC3)c3ccccc23)cc1
Among 1 and 2 , which shows a numerically higher pIC50 result? Write the label of whichever entry you select.
1
(1: 6.59, 2: 5.65)

###

# testedOn: UniProt Q99835
# assaySummary: Displacement of [3H]3-chloro-4,7-difluoro-N-(4-methoxy-3-(pyridin-4-yl)benzyl)-N-(4-(methylamino)cyclohexyl)benzo[b]thiophene-2-carboxamide from human Smoothened receptor expressed in CHO-K1 cells by membrane filter binding assay
pIC50: −log10 of the molar value.
assayEndpoint: pIC50

FC(F)(F)c1ccc(N2CCN(c3nnc(Cc4ccccc4)c4occc34)CC2)nc1
6.64

a: CC(=O)NCc1ccc(N2CCN(c3nnc(Cc4ccccc4)c4ccccc34)CC2)nc1
b: NS(=O)(=O)c1ccc(N2CCN(c3nnc(Cc4ccccc4)c4ccccc34)CC2)nc1
c: C[C@@H]1CN(c2nnc(Cc3ccccc3)c3ccccc23)CCN1c1ccc(C#N)cn1
Parameters: sort_field (pIC50), sort_dir (desc). Please list each label once, in the requested order.
c, a, b
(c: 7.47, a: 6.71, b: 6.51)

###

# testedOn: Protein smoothened (Homo sapiens)
# Sequence (Q99835 whole entry): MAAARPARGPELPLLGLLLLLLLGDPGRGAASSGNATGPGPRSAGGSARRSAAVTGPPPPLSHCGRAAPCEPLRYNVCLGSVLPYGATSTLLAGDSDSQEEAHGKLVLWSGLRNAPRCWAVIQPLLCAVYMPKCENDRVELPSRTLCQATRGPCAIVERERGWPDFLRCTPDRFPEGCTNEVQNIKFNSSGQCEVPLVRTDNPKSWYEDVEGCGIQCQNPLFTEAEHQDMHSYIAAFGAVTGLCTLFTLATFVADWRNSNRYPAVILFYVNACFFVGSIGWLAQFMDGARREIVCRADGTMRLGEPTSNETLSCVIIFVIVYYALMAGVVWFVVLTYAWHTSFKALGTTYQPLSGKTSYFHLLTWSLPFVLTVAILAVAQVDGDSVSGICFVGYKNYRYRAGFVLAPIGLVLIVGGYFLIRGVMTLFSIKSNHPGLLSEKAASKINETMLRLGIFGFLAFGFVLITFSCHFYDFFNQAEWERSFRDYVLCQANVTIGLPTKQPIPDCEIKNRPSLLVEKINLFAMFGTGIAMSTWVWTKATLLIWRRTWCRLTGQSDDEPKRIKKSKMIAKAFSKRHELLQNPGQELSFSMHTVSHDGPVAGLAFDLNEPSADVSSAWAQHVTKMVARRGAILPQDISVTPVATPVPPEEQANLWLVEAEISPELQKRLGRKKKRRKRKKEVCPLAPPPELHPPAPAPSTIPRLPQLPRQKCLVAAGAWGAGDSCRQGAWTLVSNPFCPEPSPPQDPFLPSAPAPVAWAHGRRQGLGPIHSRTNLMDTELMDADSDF
# assaySummary: Displacement of [3H]3-chloro-4,7-difluoro-N-(4-methoxy-3-(pyridin-4-yl)benzyl)-N-(4-(methylamino)cyclohexyl)benzo[b]thiophene-2-carboxamide from human Smoothened receptor expressed in CHO-K1 cells by membrane filter binding assay
pIC50: −log10 of the molar value.
assayEndpoint: pIC50

Examples with their reported pIC50 follow.
c1ccc(Cc2nnc(N3CCN(c4ccccc4)CC3)c3ccccc23)cc1
5.37
c1ccc(Cc2nnc(N3CCN(c4ccccn4)CC3)c3ccccc23)cc1
5.91

a: CN(C)Cc1ccc(N2CCN(c3nnc(Cc4ccccc4)c4ccccc34)CC2)nc1
b: C[C@H]1CN(c2ccc(C#N)cn2)CCN1c1nnc(Cc2ccccc2)c2ccccc12
c: N#Cc1ccc(N2CCN(c3nnc(Cc4ccc(C(F)(F)F)cc4)c4ccccc34)CC2)nc1
d: N#Cc1ccc(N2CCCN(c3nnc(Cc4ccccc4)c4ccccc34)CC2)nc1
e: COC(=O)c1ccc(Cc2nnc(N3CCN(c4ccc(C#N)cn4)CC3)c3ccccc23)cc1
Parameters: sort_field (pIC50), sort_dir (desc). Please list each label once, in the requested order.
b, c, d, a, e

A: OC1(c2ccc(N3CCN(c4nnc(Cc5ccccc5)c5ccccc45)CC3)nc2)CC1
B: CC(O)c1ccc(N2CCN(c3nnc(Cc4ccccc4)c4ccccc34)CC2)nc1 (stereo not given)
Between the entries labeled A and B , whose measured pIC50 is lower? Write the label of whichever entry you select.
B
(B: 7.17, A: 7.68)

a: N#Cc1ccc(N2CCN(c3nnc(Cc4ccc(Cl)cc4)c4ccccc34)CC2)nc1
b: CC(C)(N)c1ccc(N2CCN(c3nnc(Cc4ccccc4)c4ccccc34)CC2)nc1
Among a and b , which shows a numerically higher pIC50 result? Write the label of whichever entry you select.
b

P: CC(C)(O)c1ccc(N2CCN(c3nnc(Cc4ccccc4)c4ccccc34)CC2)nc1
Q: N#Cc1ccc(N2CCN(c3nnc(Cc4ccc(F)cc4)c4ccccc34)CC2)nc1
R: C[C@H]1CN(c2nnc(Cc3ccccc3)c3ccccc23)CCN1c1ccc(C#N)cn1
Order the entries by their reported pIC50, beginning at the minimum. Please list each label once, in the requested order.
Q, R, P
